This collection of values is drawn from patent US20220281848A1.

System: velvetleaf (Abutilon theophrasti, ABUTH)
Assay: Test A post-emergence, velvetleaf
Type: in vivo
Conditions: Post-Emergence at 62.5 g/ha; after 13 d
ATTRIBUTE MEASURED: damage to plant (100=total damage; 0=no damage) ABUTH
Note: the reply should be a number with no unit written.

For orientation, consider the following solved cases.
compound="CN1CC(c2cc(C(F)(F)F)n(C)n2)C(C(=O)Nc2ccc(F)nc2F)C1=O (racemic)" value_reported=0
compound="CN1CC(c2cc(C(F)(F)F)n(C)n2)C(C(=O)Nc2ccc(F)cc2F)C1=O (racemic)" value_reported=70
compound="CCn1nc(C2CN(C)C(=O)C2C(=O)Nc2cccc(F)c2F)c2cccc(F)c21 (centres unmarked)" value_reported=0
compound="CN1CC(c2cc(Cl)n(C)n2)C(C(=O)Nc2cccc(F)c2F)C1=O (racemic)" value_reported=0

Kindly review the next compound as well.
Dear colleague, I am looking for the recorded damage to plant (100=total damage; 0=no damage) ABUTH of the following compound: Cn1nc([C@H]2CNC(=O)[C@@H]2C(=O)Nc2cccc(F)n2)cc1C(C)(C)C
0

* * *

Each entry below lists one item and its recorded damage to plant, POLCO value.
System: plants
Test: Test D pre-emergence, other plants of Tables D1 and D3
Type: in vivo
Conditions: pre-emergence, rate 60, 20 DAA, 100=total damage, 0=no damage
Note: the reply should be a number with no unit written.

compound="CN1CC(c2cc(C(F)(F)F)n(C)n2)C(C(=O)Nc2cccc(F)c2C(F)(F)F)C1=O (racemic)" value_reported=0

Dear colleague, I am looking for the recorded damage to plant, POLCO of the following compound: CCn1nc([C@@H]2CN(C)C(=O)[C@H]2C(=O)Nc2cccc(F)c2F)c2cccc(F)c21
10

Dear colleague, I am looking for the recorded damage to plant, POLCO of the following compound: CN1C[C@H](c2nn(C)c3c(F)cccc23)[C@@H](C(=O)Nc2cccc(F)c2F)C1=O
0

Dear colleague, I am looking for the recorded damage to plant, POLCO of the following compound: CN1CC(c2cc(C(F)(F)F)n(C)n2)C(C(=O)Nc2ccc(F)nc2F)C1=O (racemic)
0

Dear colleague, I am looking for the recorded damage to plant, POLCO of the following compound: CN1CC(c2cc(C(F)(F)F)n(C)n2)C(C(=O)Nc2ccccc2F)C1=O (racemic)
0

* * *

System: plants
Experiment: Test D post-emergence, other plants of Tables D2 and D4
Type: in vivo
Details: post-emergence, AMARE, rate 500, evaluated after 15 d
ATTRIBUTE MEASURED: damage to plant (100=total damage to plant; 0=no damage to plant), AMARE

For orientation, consider the following solved cases.
compound="CN1CC(c2cc(C(F)(F)F)n(C)n2)C(C(=O)Nc2ccc(F)cc2C(C)(F)F)C1=O (racemic)" value_reported=0
compound="COc1c(F)cccc1NC(=O)C1C(=O)N(C)CC1c1cc(C(F)(F)F)n(C)n1 (racemic)" value_reported=20
compound="CN1CC(c2cc(C(F)(F)F)n(C)n2)C(C(=O)Nc2ccc(F)nc2F)C1=O (racemic)" value_reported=0

Kindly review the next compound as well.
Dear colleague, I am looking for the recorded damage to plant (100=total damage to plant; 0=no damage to plant), AMARE of the following compound: CN1CC(c2cc(C(F)(F)F)n(C)n2)C(C(=O)Nc2ccc(F)cc2F)C1=O (racemic)
20

* * *

Test system: plants
Assay: Test D post-emergence, other plants of Tables D2 and D4
Assay type: in vivo
Settings: post-emergence, GLXMA, rate 500, evaluated after 15 d
ATTRIBUTE MEASURED: damage to plant (100=total damage to plant; 0=no damage to plant), GLXMA
Note: the reply should be a number with no unit written.

For orientation, consider the following solved cases.
molecule=CCn1nc([C@H]2CN(C)C(=O)[C@@H]2C(=O)Nc2cccc(F)c2F)c2cc(F)ccc21 value_reported=0
molecule=CCn1nc([C@H]2CN(C)C(=O)[C@@H]2C(=O)Nc2cccc(F)c2F)c2c(F)cccc21 value_reported=0
molecule="CN1CC(c2cc(C(F)(F)F)n(C)n2)C(C(=O)Nc2ccc(F)c(F)c2F)C1=O (racemic)" value_reported=10
molecule="CN1CC(c2cc(C(F)(F)F)n(C)n2)C(C(=O)Nc2cccc(F)n2)C1=O (racemic)" value_reported=10
molecule="CN1CC(c2cc(C(F)(F)F)n(C)n2)C(C(=O)Nc2ccc(F)nc2F)C1=O (racemic)" value_reported=40

Kindly review the next molecule as well.
Dear colleague, I am looking for the recorded damage to plant (100=total damage to plant; 0=no damage to plant), GLXMA of the following molecule: CN1CC(c2cc(C(F)(F)F)n(C)n2)C(C(=O)Nc2ccc(F)cc2C(C)(F)F)C1=O (racemic)
0

* * *

System: plants
Test: Test D pre-emergence, other plants of Tables D1 and D3
Type: in vivo
Conditions: pre-emergence, rate 15, 20 DAA, 100=total damage, 0=no damage
ATTRIBUTE MEASURED: damage to plant, POLCO
Note: the reply should be a number with no unit written.

Dear colleague, I am looking for the recorded damage to plant, POLCO of the following compound: COc1c(F)cccc1NC(=O)C1C(=O)N(C)CC1c1cc(C(F)(F)F)n(C)n1 (racemic)
0

* * *

Test system: redroot pigweed (Amaranthus retroflexus, AMARE)
Assay: Test A post-emergence, redroot pigweed
Assay type: in vivo
Settings: Post-Emergence at 62.5 g/ha; after 13 d
Each entry below lists one item and its recorded damage to plant (100=total damage; 0=no damage) AMARE value.
Note: the reply should be a number with no unit written.

For orientation, consider the following solved cases.
compound="CN1CC(c2cc(C(F)(F)F)n(C)n2)C(C(=O)Nc2cccc(F)c2F)C1=O (stereo not drawn) [Compound 12]" tested_system="redroot pigweed (Amaranthus retroflexus, AMARE)" value_reported=0
compound="COc1c(F)cccc1NC(=O)C1C(=O)N(C)CC1c1cc(C(F)(F)F)n(C)n1 (racemic)" tested_system="redroot pigweed (Amaranthus retroflexus, AMARE)" value_reported=0
compound="CCc1ccccc1NC(=O)C1C(=O)N(C)CC1c1cc(C(F)(F)F)n(C)n1 (racemic)" tested_system="redroot pigweed (Amaranthus retroflexus, AMARE)" value_reported=10
compound="CN1CC(c2cc(C(F)(F)F)n(C)n2)C(C(=O)Nc2ccc(F)cc2F)C1=O (racemic)" tested_system="redroot pigweed (Amaranthus retroflexus, AMARE)" value_reported=10
compound="CN1CC(c2cc(C(F)(F)F)n(C)n2)C(C(=O)Nc2cccc(F)c2C(F)(F)F)C1=O (racemic)" tested_system="redroot pigweed (Amaranthus retroflexus, AMARE)" value_reported=0

Dear colleague, I am looking for the recorded damage to plant (100=total damage; 0=no damage) AMARE of the following compound: CN1CC(c2cc(C(F)(F)F)n(C)n2)C(C(=O)Nc2cccc(F)c2F)C1=O (racemic) [Compound 3]
10

Dear colleague, I am looking for the recorded damage to plant (100=total damage; 0=no damage) AMARE of the following compound: CN1CC(c2nn(C)c(Cl)c2Br)C(C(=O)Nc2cccc(F)c2F)C1=O (racemic)
40

Dear colleague, I am looking for the recorded damage to plant (100=total damage; 0=no damage) AMARE of the following compound: CN1CC(c2cc(C(F)(F)F)n(C)n2)C(C(=O)Nc2ccccc2F)C1=O (racemic)
0

Dear colleague, I am looking for the recorded damage to plant (100=total damage; 0=no damage) AMARE of the following compound: CN1CC(c2cc(C(F)(F)F)n(C)n2)C(C(=O)Nc2cccc(F)n2)C1=O (racemic)
0

* * *

Each entry below lists one item and its recorded damage to plant (100=total damage; 0=no damage) ZEAMX value.
Test system: corn (Zea mays, ZEAMX)
Test: Test A post-emergence, corn
Assay type: in vivo
Details: Post-Emergence at 62.5 g/ha; after 13 d

For orientation, consider the following solved cases.
molecule="CCn1nc(C2CN(C)C(=O)C2C(=O)Nc2cccc(F)c2F)c2cccc(F)c21 (stereo not drawn) [Compound 15]" value_reported=0
molecule="CN1CC(c2cc(C(F)(F)F)n(C)n2)C(C(=O)Nc2ccc(F)cc2F)C1=O (racemic)" value_reported=20

Dear colleague, I am looking for the recorded damage to plant (100=total damage; 0=no damage) ZEAMX of the following molecule: CCn1nc(C2CN(C)C(=O)C2C(=O)Nc2cccc(F)c2F)c2cccc(F)c21 (racemic) [Compound 10]
10

* * *

Each entry below lists one item and its recorded damage to plant (100=total damage to plant; 0=no damage to plant), ELEIN value.
Tested on: plants
Assay: Test D post-emergence, other plants of Tables D2 and D4
Type: in vivo
Settings: post-emergence, ELEIN, rate 500, evaluated after 15 d
Note: the reply should be a number with no unit written.

For orientation, consider the following solved cases.
compound="CN1CC(c2cc(C(F)(F)F)n(C)n2)C(C(=O)Nc2cccc(F)c2C(F)(F)F)C1=O (racemic)" value_reported=60
compound="CN1CC(c2cc(C(F)(F)F)n(C)n2)C(C(=O)Nc2ccc(F)cc2C(C)(F)F)C1=O (racemic)" value_reported=10
compound="CN1CC(c2cc(C(F)(F)F)n(C)n2)C(C(=O)Nc2cccc(F)n2)C1=O (racemic)" value_reported=0

Kindly review the next compound as well.
Dear colleague, I am looking for the recorded damage to plant (100=total damage to plant; 0=no damage to plant), ELEIN of the following compound: CN1CC(c2cc(C(F)(F)F)n(C)n2)C(C(=O)Nc2cccc(F)c2F)C1=O (racemic)
0
